Form field: iScore (one value per entry).
Biological target: HLA-A*2402 (human)
Test: iTopia net score;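 further: iScore from iTopia software combining peptide binding, affinity over a dilution series and off-rate after warming to body temperature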

- binder: "KILSLTETI [cdr2 111-119 KILSLTETI]"
  iScore: 0.261
- binder: "TVTMLQAQL [cdr2 201-209 TVTMLQAQL]"
  iScore: 0.062
- binder: "PFVNGVEKL [cdr2 266-274 PFVNGVEKL]"
  iScore: 0.218
- binder: "EYKALFKEI [cdr2 421-429 EYKALFKEI]"
  iScore: 0.505

The measured values listed here are drawn from patent US20090208538A1.
